Target of assay: RAC-gamma serine/threonine-protein kinase (Homo sapiens)
Test summary: Inhibition of AKT3 by IMAP assay
The source made the active and inactive calls. The rule behind the calls is not given here.
Measurement kind: inhibition

Previously resolved entries follow.
Compound	Target of assay	inhibition
COCCN(C[C@@H](O)CN1CCCC2(CC(=O)c3cc(O)ccc3O2)C1)S(=O)(=O)c1c(C)noc1C (mixture of isomers)	RAC-gamma serine/threonine-protein kinase (Homo sapiens)	Active
COCCN(C[C@@H](O)CN1CCCC2(CC(=O)c3cc(O)ccc3O2)C1)S(=O)(=O)c1c(C)noc1C (stereo in doubt; 7-d1)	RAC-gamma serine/threonine-protein kinase (Homo sapiens)	Active
CCOCCN(C[C@@H](O)CN1CCCC2(CC(=O)c3cc(O)ccc3O2)C1)S(=O)(=O)c1ccc(Cl)cc1 (mixture of isomers)	RAC-gamma serine/threonine-protein kinase (Homo sapiens)	Active
CCOCCN(C[C@@H](O)CN1CCCC2(CC(=O)c3cc(O)ccc3O2)C1)S(=O)(=O)c1ccccc1C(F)(F)F (mixture of isomers)	RAC-gamma serine/threonine-protein kinase (Homo sapiens)	Active
CCOCCN(C[C@@H](O)CN1CCCC2(CC(=O)c3cc(O)ccc3O2)C1)S(=O)(=O)c1ccccc1OC (mixture of isomers)	RAC-gamma serine/threonine-protein kinase (Homo sapiens)	Active

Prompt line: Notebook entry, RAC-gamma serine/threonine-protein kinase (Homo sapiens) assay: inhibition of COCCN(C[C@@H](O)CN1CCCC2(CC(=O)c3cc(O)ccc3O2)C1)S(=O)(=O)c1c(C)noc1C (stereo in doubt; 7-d2) = ?
Response line: Active

Prompt line: Notebook entry, RAC-gamma serine/threonine-protein kinase (Homo sapiens) assay: inhibition of Cc1noc(C)c1S(=O)(=O)N(CCOC(C)C)C[C@@H](O)CN1CCCC2(CC(=O)c3cc(O)ccc3O2)C1 (mixture of isomers) = ?
Response line: Active

Prompt line: Notebook entry, RAC-gamma serine/threonine-protein kinase (Homo sapiens) assay: inhibition of CCOCCN(C[C@@H](O)CN1CCCC2(CC(=O)c3cc(O)ccc3O2)C1)S(=O)(=O)c1c(C)cccc1C (mixture of isomers) = ?
Response line: Active

Prompt line: Notebook entry, RAC-gamma serine/threonine-protein kinase (Homo sapiens) assay: inhibition of CCOCCN(C[C@@H](O)CN1CCCC2(CC(=O)c3cc(O)ccc3O2)C1)S(=O)(=O)c1c(C)noc1C (mixture of isomers) = ?
Response line: Active

Prompt line: Notebook entry, RAC-gamma serine/threonine-protein kinase (Homo sapiens) assay: inhibition of Cc1noc(C)c1S(=O)(=O)N(Cc1ccccc1)CC(O)CN1CCCC2(CC(=O)c3cc(O)ccc3O2)C1 (configuration not stated) = ?
Response line: Active

Prompt line: Notebook entry, RAC-gamma serine/threonine-protein kinase (Homo sapiens) assay: inhibition of CCCCCN(C[C@@H](O)CN1CCCC2(CC(=O)c3cc(O)ccc3O2)C1)S(=O)(=O)c1c(C)noc1C (mixture of isomers) = ?
Response line: Active

---

Test summary: Selectivity ratio of IC50 for PKA to IC50 for Akt1
Measurement kind: Ratio IC50

Molecule	Ratio IC50
CCOCCN(C[C@@H](O)CN1CCCC2(CCc3cc(C#N)ccc3O2)C1)S(=O)(=O)c1c(C)cccc1C (stereo partly specified)	54

P. CCOCCN(C[C@@H](O)CN1CCCC2(CCc3cc4c(cc3O2)CNC4=O)C1)S(=O)(=O)c1c(C)cccc1C (stereo partly specified)
Q. CCOCCN(C[C@@H](O)CN1CCCC2(CCc3c(ccc4[nH]ncc34)O2)C1)S(=O)(=O)c1c(C)cccc1C (stereo partly specified)
Prompt line: Form: Entry with minimum Ratio IC50 (choose one): P / Q Write down the label attached to your selection.
Response line: Q
